experiment: Pharmacokinetic study, plasma levels by HPLC; format: in vivo, CDF1 mice; conditions: female, CDF1, mouse, in vivo, po, 120 mg/kg
outcome-measure: half-life (min)

- CC(=O)O[C@@]1([C@@H]2/C(C)=C(/O)C(=O)C3=C(C)[C@@H](OC(=O)[C@H](O)[C@H](CC(C)C)NC(=O)OC(C)(C)C)C[C@@](O)([C@H]2OC(=O)c2ccccc2)C3(C)C)CO[C@@H]1CCO: 42

----------
test: Pharmacokinetic study, plasma levels by HPLC; type: in vivo, CDF1 mice; conditions: female, CDF1, mouse, in vivo, po, 120 mg/kg
outcome-measure: Cmax (ng/mL)

* CC(=O)O[C@@]1([C@@H]2/C(C)=C(/O)C(=O)C3=C(C)[C@@H](OC(=O)[C@H](O)[C@H](CC(C)C)NC(=O)OC(C)(C)C)C[C@@](O)([C@H]2OC(=O)c2ccccc2)C3(C)C)CO[C@@H]1CCO [IDN 5390] | 25000
